# SYSTEM: ~100 representative kinases (Homo sapiens)
# Construct: Recombinant protein kinase domains with a concentration of 2 μM
# Sequence (P49761 whole entry, the tested form may be a part): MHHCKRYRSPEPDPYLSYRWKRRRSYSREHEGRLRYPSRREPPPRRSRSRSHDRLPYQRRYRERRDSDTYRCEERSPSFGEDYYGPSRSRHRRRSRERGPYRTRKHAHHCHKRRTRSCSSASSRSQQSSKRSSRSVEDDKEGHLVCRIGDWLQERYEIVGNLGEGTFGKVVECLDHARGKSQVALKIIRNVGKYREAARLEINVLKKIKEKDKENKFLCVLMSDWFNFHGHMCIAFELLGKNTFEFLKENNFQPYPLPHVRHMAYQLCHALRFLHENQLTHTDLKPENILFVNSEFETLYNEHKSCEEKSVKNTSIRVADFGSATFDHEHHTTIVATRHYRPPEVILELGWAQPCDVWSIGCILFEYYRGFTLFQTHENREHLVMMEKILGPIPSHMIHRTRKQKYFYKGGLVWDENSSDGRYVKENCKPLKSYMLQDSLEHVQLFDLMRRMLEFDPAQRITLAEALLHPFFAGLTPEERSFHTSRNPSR
# PROCEDURE_SUMMARY: DSF 100 kinase selectivity screen;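 also: compound tested at 20 µM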
# Assay type: binding
# PARTICULARS: Protein CLK3; average of three replicates
MEASURE: log10 of dTm (log10 of the value in K)

# COMPOUND, SYSTEM, log10 of dTm
data = [
    ("CC(C)(C)c1cc(NC(=O)Nc2cccc(-c3c[nH]c4ncnc(N5CCOCC5)c34)c2)n(-c2ccc3ncccc3c2)n1 [Compound 28]", "~100 representative kinases (Homo sapiens)", 1.21),
    ("COc1ccc(NC(=O)C2(C(=O)Nc3cccc(-c4c[nH]c5ncnc(N6CCOCC6)c45)c3)CC2)cc1 [Compound 16]", "~100 representative kinases (Homo sapiens)", -0.29),
    ("Cc1ccc(C(=O)Nc2ccc(CN3CCN(C)CC3)c(C(F)(F)F)c2)cc1C#Cc1cnc2[nH]ncc2c1 [GZD-824, reference compound]", "~100 representative kinases (Homo sapiens)", 0.68),
    ("CC(=O)N1CCN(c2nc(Cl)nc3[nH]cc(-c4cccc(NC(=O)Nc5cc(C(C)(C)C)nn5-c5ccc(C)cc5)c4)c23)CC1 [Compound 31]", "~100 representative kinases (Homo sapiens)", 0.52),
    ("O=C(Nc1cccc(-c2c[nH]c3ncnc(N4CCOCC4)c23)c1)C1(C(=O)Nc2cccc3c2CCC3)CC1 [Compound 11]", "~100 representative kinases (Homo sapiens)", 0.21),
    ("CCNc1nc(Nc2cc(F)c(C(=O)N3CCOCC3)cc2OC)ncc1C(F)(F)F [GNE-7915]", "~100 representative kinases (Homo sapiens)", 0.26),
    ("Cc1ccc(NC(=O)C2(C(=O)Nc3cccc(-c4c[nH]c5ncnc(N6CCOCC6)c45)c3)CC2)cc1 [Compound 14]", "~100 representative kinases (Homo sapiens)", 0.38),
    ("O=C(Nc1cccc(-c2c[nH]c3ncnc(N4CCOCC4)c23)c1)C1(C(=O)Nc2cc(Br)c(F)cc2F)CC1 [Compound 25]", "~100 representative kinases (Homo sapiens)", 0.32),
    ("Cc1cc(NC(=O)C2(C(=O)Nc3ccc(F)cc3)CC2)cc(-c2c[nH]c3ncnc(N4CCOCC4)c23)c1 [Compound 6]", "~100 representative kinases (Homo sapiens)", -0.01),
    ("O=C(Nc1cccc(-c2c[nH]c3ncnc(N4CCOCC4)c23)c1)c1cccn(-c2ccc(F)cc2)c1=O [Compound 4]", "~100 representative kinases (Homo sapiens)", 0.46),
    ("COc1cc(S(C)(=O)=O)ccc1Nc1nc(N(C)C)c2c(Cl)c[nH]c2n1 [Compound 37]", "~100 representative kinases (Homo sapiens)", 0.05),
    ("Cc1cc(F)ccc1NC(=O)C1(C(=O)Nc2cccc(-c3c[nH]c4ncnc(N5CCOCC5)c34)c2)CC1 [Compound 24]", "~100 representative kinases (Homo sapiens)", -0.16),
    ("O=C(Nc1cccc(-c2c[nH]c3ncnc(N4CCOCC4)c23)c1)C1(C(=O)Nc2ccc(F)c(F)c2)CC1 [Compound 17]", "~100 representative kinases (Homo sapiens)", 0.54),
    ("CCc1ccc(NC(=O)C2(C(=O)Nc3cccc(-c4c[nH]c5ncnc(N6CCOCC6)c45)c3)CC2)cc1 [Compound 15]", "~100 representative kinases (Homo sapiens)", 0.46),
    ("CNC(=O)c1cc(Oc2ccc(NC(=O)Nc3cc(C(C)(C)C)nn3-c3ccc4ncccc4c3)c(F)c2)ccn1 [Rebastinib, reference compound]", "~100 representative kinases (Homo sapiens)", 0.94),
    ("O=C(Nc1cccc(-c2c[nH]c3ncnc(N4CCOCC4)c23)c1)C1(C(=O)Nc2ccc(F)c(Br)c2F)CC1 [Compound 26]", "~100 representative kinases (Homo sapiens)", 0.51),
    ("Cc1ccc(-n2nc(C(C)(C)C)cc2NC(=O)Nc2cccc(-c3c[nH]c4ncnc(N5CCOCC5)c34)c2)cc1 [Compound 29]", "~100 representative kinases (Homo sapiens)", 1.16),
    ("Cc1cc(NC(=O)C2(C(=O)Nc3cccc(-c4c[nH]c5ncnc(N6CCOCC6)c45)c3)CC2)ccc1F [Compound 20]", "~100 representative kinases (Homo sapiens)", 0.78),
    ("O=C(Nc1cccc(-c2c[nH]c3ncnc(N4CCOCC4)c23)c1)C1(C(=O)Nc2ccc(F)cc2F)CC1 [Compound 23]", "~100 representative kinases (Homo sapiens)", 0.20),
]
